tested on: Escherichia coli TOP10; experiment: shrunken log2 fold change of peptide-encoding DNA abundance (4.5 h post-induction vs induction); higher = less antimicrobial activity (less host growth inhibition); settings: time post-induction: 4.5 h; library: site-saturation at positions 5, 18, 19, 20;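 also: peptides expressed intracellularly from a pBAD plasmid library in pooled LB shake-flask culture, induced with 0.3% L-arabinose, DNA abundance read by NGS, three biological replicates, DESeq2 with apeglm shrinkage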

| Ordered Residues | shrunken log2 fold change |
| --- | --- |
| RRIRWRPPRLPRPRPRPFVAPRP | 0.292 |
| RRIRVRPPRLPRPRPRPKMRPRP | 0.329 |
| RRIRVRPPRLPRPRPRPKLWPRP | 0.127 |
| RRIRRRPPRLPRPRPRPTDCPRP | 0.0967 |
| RRIRDRPPRLPRPRPRPGGKPRP | -0.0179 |
| RRIRCRPPRLPRPRPRPDTVPRP | -0.369 |
| RRIRCRPPRLPRPRPRPQMQPRP | -0.347 |
| RRIRPRPPRLPRPRPRPYGHPRP | 0.0138 |
| RRIRGRPPRLPRPRPRPAKSPRP | 0.492 |
| RRIRWRPPRLPRPRPRPNLYPRP | -0.169 |
| RRIRSRPPRLPRPRPRPPSTPRP | 0.141 |
| RRIRKRPPRLPRPRPRPQRDPRP | 0.858 |
| RRIRKRPPRLPRPRPRPFSGPRP | -0.172 |
| RRIRKRPPRLPRPRPRPYTLPRP | 0.0187 |
| RRIRNRPPRLPRPRPRPNAPPRP | -0.194 |
| RRIRHRPPRLPRPRPRPSRIPRP | 0.111 |
| RRIRCRPPRLPRPRPRPLSGPRP | -0.0515 |
| RRIRRRPPRLPRPRPRPWTAPRP | -0.106 |
| RRIRSRPPRLPRPRPRPIHVPRP | -0.154 |
| RRIRSRPPRLPRPRPRPTCWPRP | 1.09 |
| RRIRERPPRLPRPRPRPMPCPRP | -0.0207 |
| RRIRWRPPRLPRPRPRPIGMPRP | -0.131 |
| RRIRHRPPRLPRPRPRPVLCPRP | -0.273 |
| RRIRKRPPRLPRPRPRPRETPRP | 0.0512 |
| RRIRRRPPRLPRPRPRPFVMPRP | -0.0623 |
| RRIRRRPPRLPRPRPRPVANPRP | 0.207 |
| RRIRMRPPRLPRPRPRPDFGPRP | 0.0563 |
| RRIRCRPPRLPRPRPRPVIQPRP | -0.468 |
| RRIRWRPPRLPRPRPRPTFTPRP | 0.195 |
| RRIRMRPPRLPRPRPRPQIAPRP | 0.208 |
| RRIRTRPPRLPRPRPRPKTSPRP | -0.0907 |
| RRIRWRPPRLPRPRPRPVSFPRP | 0.169 |
